assay: Stability to Phase I metabolism in human S9 liver fraction; format: in vitro ADME; details: human liver S9 fraction, after 90 min, 37° C.
So I've got a bunch of molecules here, and I need their residual percentage in human S9 fraction values.
Supply the numeric figure in %, leaving out any unit text.

For this molecule ( O=C(NO)c1cc(F)c(Cc2nnc(-c3ccncc3)s2)c(F)c1 ), measured residual percentage in human S9 fraction is 68

For this molecule ( O=C(NO)c1cc(F)c(Cc2noc(-c3cncc(N4CC5(COC5)C4)c3)n2)c(F)c1 ), measured residual percentage in human S9 fraction is 75

For this molecule ( Cn1c(Sc2c(F)cc(C(=O)NO)cc2F)nnc1-c1cccs1 ), measured residual percentage in human S9 fraction is 83

For this molecule ( O=C(NO)c1cc(F)c(Cn2nnc(-c3ccccn3)n2)c(F)c1 ), measured residual percentage in human S9 fraction is 85.6
